The values you see were collected from the supplement of paper PMC12458215.

- System: HEK293T
- Assay details: plasma membrane surface immunostaining intensity (anti-HA, deep receptor scanning) (arbitrary fluorescence units); higher = higher plasma membrane expression
- Test context: GPCR class: A (Olfactory)
Reported plasma membrane surface immunostaining intensity is given for each of the following sequences.
Measurement name: plasma membrane surface immunostaining intensity

[[record]]
query_sequence = "MTEFHLQSQMPSIRLIFRRLSLGRIKPSQSPRCSTSFMVVPSFSIAEHWRRMKGANLSQGMEFELLGLTTDPQLQRLLFVVFLGMYTATLLGNLVMFLLIHVSATLHTPMYSLLKSLSFLDFCYSSTVVPQTLVNFLAKRKVISYFGCMTQMFFYAGFATSECYLIAAMAYDRYAAICNPLLYSTIMSPEVCASLIVGSYSAGFLNSLIHTGCIFSLKFCGAHVVTHFFCDGPPILSLSCVDTSLCEILLFIFAGFNLLSCTLTILISYFLILNTILKMSSAQGRFKAFSTCASHLTAICLFFGTTLFMYLRPRSSYSLTQDRTVAVIYTVVIPVLNPLMYSLRNKDVKKALIKVWGRKTME [OR5AU1]"
readout_value = 419

[[record]]
query_sequence = "MKLWMESHLIVPETRPSPRMMSNQTLVTEFILQGFSEHPEYRVFLFSCFLFLYSGALTGNVLITLAITFNPGLHAPMYFFLLNLATMDIICTSSIMPKALASLVSEESSISYGGCMAQLYFLTWAASSELLLLTVMAYDRYAAICHPLHYSSMMSKVFCSGLATAVWLLCAVNTAIHTGLMLRLDFCGPNVIIHFFCEVPPLLLLSCSSTYVNGVMIVLADAFYGIVNFLMTIASYGFIVSSILKVKTAWGRQKAFSTCSSHLTVVCMYYTAVFYAYISPVSGYSAGKSKLAGLLYTVLSPTLNPLIYTLRNKEVKAALRKLFPFFRN [OR13A1]"
readout_value = 120

[[record]]
query_sequence = "MTNQTQMMEFLLVRFTENWVLLRLHALLFSLIYLTAVLMNLVIILLMILDHRLHMAMYFFLRHLSFLDLCLISATVPKSILNSVASTDSISFLGCVLQLFLVVLLAGSEIGILTAMSYDRYAAICCPLHCEAVMSRGLCVQLMALSWLNRGALGLLYTAGTFSLNFYGSDELHQFFCDVPALLKLTCSKEHAIISVSVAIGVCYAFSCLVCIVVSYVYIFSAVLRISQRQRQSKAFSNCVPHLIVVTVFLVTGAVAYLKPGSDAPSILDLLVSVFYSVAPPTLNPVIYCLKNKDIKSALSKVLWNVRSSGVMKR [OR14K1]"
readout_value = 155

[[record]]
query_sequence = "MSASNITLTHPTAFLLVGIPGLEHLHIWISIPFCLAYTLALLGNCTLLLIIQADAALHEPMYLFLAMLAAIDLVLSSSALPKMLAIFWFRDREINFFACLAQMFFLHSFSIMESAVLLAMAFDRYVAICKPLHYTKVLTGSLITKIGMAAVARAVTLMTPLPFLLRCFHYCRGPVIAHCYCEHMAVVRLACGDTSFNNIYGIAVAMFIVVLDLLLVILSYIFILQAVLLLASQEARYKAFGTCVSHIGAILAFYTTVVISSVMHRVARHAAPHVHILLANFYLLFPPMVNPIIYGVKTKQIRESILGVFPRKDM [OR52K2]"
readout_value = 441

[[record]]
query_sequence = "MGDNITSIREFLLLGFPVGPRIQMLLFGLFSLFYVFTLLGNGTILGLISLDSRLHAPMYFFLSHLAVVDIAYACNTVPRMLVNLLHPAKPISFAGRMMQTFLFSTFAVTECLLLVVMSYDLYVAICHPLRYLAIMTWRVCITLAVTSWTTGVLLSLIHLVLLLPLPFCRPQKIYHFFCEILAVLKLACADTHINENMVLAGAISGLVGPLSTIVVSYMCILCAILQIQSREVQRKAFRTCFSHLCVIGLVYGTAIIMYVGPRYGNPKEQKKYLLLFHSLFNPMLNPLICSLRNSEVKNTLKRVLGVERAL [OR2A4]"
readout_value = 123

